Attribution: ChEMBL document CHEMBL6134821

- test.system: Protein cereblon/Tyrosine-protein kinase BTK (Homo sapiens, UniProt Q06187+Q96SW2)
- Sequence (Q06187 2-659 limits assumed): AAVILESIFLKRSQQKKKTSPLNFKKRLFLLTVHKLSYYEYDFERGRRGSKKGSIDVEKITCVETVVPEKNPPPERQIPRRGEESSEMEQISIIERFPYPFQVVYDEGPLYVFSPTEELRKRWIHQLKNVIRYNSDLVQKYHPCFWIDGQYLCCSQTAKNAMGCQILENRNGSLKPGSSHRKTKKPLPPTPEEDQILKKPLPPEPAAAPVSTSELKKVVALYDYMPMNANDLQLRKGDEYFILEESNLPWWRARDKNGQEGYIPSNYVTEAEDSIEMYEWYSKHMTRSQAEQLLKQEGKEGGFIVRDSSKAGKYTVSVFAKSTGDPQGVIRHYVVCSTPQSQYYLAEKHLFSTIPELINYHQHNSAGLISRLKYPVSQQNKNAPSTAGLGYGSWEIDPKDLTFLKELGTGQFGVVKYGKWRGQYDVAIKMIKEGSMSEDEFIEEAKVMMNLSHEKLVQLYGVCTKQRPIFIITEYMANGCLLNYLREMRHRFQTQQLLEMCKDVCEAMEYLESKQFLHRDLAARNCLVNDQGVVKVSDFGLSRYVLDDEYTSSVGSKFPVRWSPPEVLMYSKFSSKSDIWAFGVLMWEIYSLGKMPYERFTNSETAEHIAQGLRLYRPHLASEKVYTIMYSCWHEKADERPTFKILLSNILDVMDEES
- Sequence (Q96SW2 whole entry partner): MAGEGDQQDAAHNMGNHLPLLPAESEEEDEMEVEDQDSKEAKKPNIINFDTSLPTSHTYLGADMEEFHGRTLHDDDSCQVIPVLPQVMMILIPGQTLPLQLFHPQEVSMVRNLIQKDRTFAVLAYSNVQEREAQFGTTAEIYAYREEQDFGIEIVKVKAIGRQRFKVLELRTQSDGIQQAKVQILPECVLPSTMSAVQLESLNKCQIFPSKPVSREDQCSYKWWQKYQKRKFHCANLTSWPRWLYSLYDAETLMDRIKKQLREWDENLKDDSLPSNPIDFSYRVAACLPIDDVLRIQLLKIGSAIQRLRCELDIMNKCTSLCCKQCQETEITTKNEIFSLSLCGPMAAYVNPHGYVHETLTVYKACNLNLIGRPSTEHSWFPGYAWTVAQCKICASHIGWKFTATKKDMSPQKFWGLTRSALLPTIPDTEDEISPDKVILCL
- measurement.notes: PROTAC activity at CRBN/BTK in human JeKo-1 cells assessed as BTK degradation at 30 nM incubated for 24 hrs by Western blot analysis relative to control
- Assay type: cell-based
Label 1 (yes) when Activity is at or above 90%; anything below gets 0 (no).

[in] Check if Activity >= 90% (inclusive). Item: O=C1CCC(N2Cc3cc(N4CCC(CCN5CCC(CC(=O)NC6CCN(c7ncnc8[nH]cc(C(=O)c9ccc(Oc%10ccccc%10)cc9Cl)c78)CC6)CC5)CC4)c(F)cc3C2=O)C(=O)N1 (stereo unspecified)
[out] 0 (no)

[in] Follow-up entry: O=C1CCC(N2Cc3cc(N4CCC(CCN5CCC(CC(=O)N[C@H]6CC[C@@H](Nc7ncnc8[nH]cc(C(=O)c9ccccc9Cl)c78)CC6)CC5)CC4)c(F)cc3C2=O)C(=O)N1 (stereo partly specified)
[out] 0 (no)

[in] Follow-up entry: O=C1CCC(N2Cc3cc(N4CCC(CCN5CCC(CC(=O)N[C@H]6CC[C@@H](Nc7ncnc8[nH]cc(C(=O)c9ccc(Oc%10ccccc%10)cc9)c78)CC6)CC5)CC4)c(F)cc3C2=O)C(=O)N1 (stereo partly specified)
[out] 1 (yes)

[in] Follow-up entry: O=C1CCC(N2Cc3cc(N4CCC(CCN5CCC(CC(=O)N[C@H]6CC[C@H](Nc7ncnc8[nH]cc(C(=O)c9ccc(Oc%10ccccc%10)cc9Cl)c78)C6)CC5)CC4)c(F)cc3C2=O)C(=O)N1 (stereo partly specified)
[out] 1 (yes)

[in] Follow-up entry: O=C1CCC(N2Cc3cc(N4CCC(CCN5CCC(CC(=O)N[C@@H]6CCC[C@H](Nc7ncnc8[nH]cc(C(=O)c9ccc(Oc%10ccccc%10)cc9Cl)c78)C6)CC5)CC4)c(F)cc3C2=O)C(=O)N1 (stereo partly specified)
[out] 0 (no)

[in] Follow-up entry: O=C1CCC(c2ccc(N3CCC(CCN4CCC(CC(=O)N[C@H]5CC[C@H](Nc6ncnc7[nH]cc(C(=O)c8ccc(Oc9ccccc9)cc8)c67)C5)CC4)CC3)cc2)C(=O)N1 (stereo partly specified)
[out] 0 (no)

[in] Follow-up entry: O=C1CCC(c2ccc(N3CCC(CCN4CCC(CCN[C@H]5CC[C@@H](Nc6ncnc7[nH]cc(C(=O)c8ccc(Oc9ccccc9)cc8)c67)CC5)CC4)CC3)cc2)C(=O)N1 (stereo partly specified)
[out] 0 (no)
